Data origin, for the record: patent US20210388087A1

# subject-of-test: T1, Human CD3eg linker (human)
# T1 construct: Single chain: epsilon and gamma subunits of human CD3 joined by a 29-mer linker, Flag-tag at the C-terminus; also called recombinant human CD3
# T1 chain: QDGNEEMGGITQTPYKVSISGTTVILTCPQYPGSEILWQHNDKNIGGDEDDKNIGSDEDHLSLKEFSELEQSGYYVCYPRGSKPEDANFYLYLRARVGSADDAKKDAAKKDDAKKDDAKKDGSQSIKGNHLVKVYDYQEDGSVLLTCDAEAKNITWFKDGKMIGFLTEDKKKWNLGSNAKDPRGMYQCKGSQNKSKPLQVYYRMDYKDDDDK
# method-description: Biacore SPR, vs template H183/L072
metric-name: fold change of affinity (fold)
I only need the number, in fold, no unit after it.

{"binder": "H183/L072 VH A60F (antibody, name in Kabat numbering, V domains shown) VH: QVQLVESGGGLVQPGRSLRLSCAASGFTFSNAWMHWVRQAPGKGLEWVAQIKDKGNAYAAYYFPSVKGRFTISRDDSKNSIYLQMNSLKTEDTAVYYCHYVHYASASTVLPAFGVDAWGQGTTVTVSS VL: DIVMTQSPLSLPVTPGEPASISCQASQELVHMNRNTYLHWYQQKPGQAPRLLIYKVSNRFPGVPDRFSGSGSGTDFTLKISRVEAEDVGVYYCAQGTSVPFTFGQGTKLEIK", "unit-of-measure": "fold", "fold change of affinity": 0.7}
{"binder": "H183/L072 VH F27M (antibody, name in Kabat numbering, V domains shown) VH: QVQLVESGGGLVQPGRSLRLSCAASGMTFSNAWMHWVRQAPGKGLEWVAQIKDKGNAYAAYYAPSVKGRFTISRDDSKNSIYLQMNSLKTEDTAVYYCHYVHYASASTVLPAFGVDAWGQGTTVTVSS VL: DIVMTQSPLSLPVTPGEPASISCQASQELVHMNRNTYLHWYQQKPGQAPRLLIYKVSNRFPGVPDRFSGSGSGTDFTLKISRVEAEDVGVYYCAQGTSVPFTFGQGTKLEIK", "unit-of-measure": "fold", "fold change of affinity": 0.5}

Fill in the blank: the reported fold change of affinity of H183/L072 VH A56F (antibody, name in Kabat numbering, V domains shown) VH: QVQLVESGGGLVQPGRSLRLSCAASGFTFSNAWMHWVRQAPGKGLEWVAQIKDKGNAYFAYYAPSVKGRFTISRDDSKNSIYLQMNSLKTEDTAVYYCHYVHYASASTVLPAFGVDAWGQGTTVTVSS VL: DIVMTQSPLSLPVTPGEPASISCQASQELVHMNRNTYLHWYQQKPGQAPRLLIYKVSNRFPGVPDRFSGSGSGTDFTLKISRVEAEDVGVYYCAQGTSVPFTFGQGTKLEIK is ____.
0.6
